Hey, just so you know, these numbers are from patent US20200087364A1.

test.target: T1, HLA-A*01:01 (human)
T1 construct: MHC class I monomer first loaded with a UV-sensitive peptide (not identified) that is cleaved by UV irradiation and exchanged for the tested peptide; captured on streptavidin plates, detected with anti-β2m; also called peptide-receptive MHC molecules
procedure.text: UV-ligand exchange, anti-b2m ELISA
measured.quantity: peptide exchange yield

Reference set, count: 6
[
  {
    "binder": "KLTDYINANY",
    "peptide exchange yield": "20 to 50%"
  },
  {
    "binder": "HSIEVFTHY",
    "peptide exchange yield": "20 to 50%"
  },
  {
    "binder": "LTDSTTRTTY",
    "peptide exchange yield": "50 to 75%"
  },
  {
    "binder": "VTDGINPLI",
    "peptide exchange yield": "20 to 50%"
  },
  {
    "binder": "LLEGEDAHLTQY",
    "peptide exchange yield": "50 to 75%"
  },
  {
    "binder": "HVSGQMLYF",
    "peptide exchange yield": "20 to 50%"
  }
]

Take each entry in turn and give its peptide exchange yield.
1. NSDESADSEPHKY
2. FLKVTGYDKDDY
3. SQNGQLIHY

output:
1. > 75%
2. 20 to 50%
3. 50 to 75%
